# Test System: Des1 (Homo sapiens, UniProt O15121)
# Sequence (O15121 whole entry): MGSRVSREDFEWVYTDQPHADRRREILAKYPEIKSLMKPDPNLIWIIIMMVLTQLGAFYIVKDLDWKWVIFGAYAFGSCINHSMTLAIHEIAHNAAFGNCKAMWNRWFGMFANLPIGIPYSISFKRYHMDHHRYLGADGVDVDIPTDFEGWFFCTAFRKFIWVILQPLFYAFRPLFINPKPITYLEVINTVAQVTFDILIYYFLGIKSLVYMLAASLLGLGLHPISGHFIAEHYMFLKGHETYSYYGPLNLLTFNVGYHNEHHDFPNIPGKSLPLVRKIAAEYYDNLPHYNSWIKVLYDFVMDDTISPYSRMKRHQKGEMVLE
# Protocol Summary: Jurkat T cell measurement of conversion of dihydroceramide to ceramide (Des1 activity, LC-MS/MS of NBD-C6-ceramide)
# Type: cell-based
# Parameters: endogenous in cells; host or cells: Jurkat clone E6-1
# Experimental Setup: Jurkat clone E6-1 cells, 10 μM NBD-C6-dihydroceramide, 3 hours at 37° C.; read-out: Des1 IC50
pIC50: −log10 of the molar value.
Endpoint Name: pIC50

[
  {
    "Smiles Text": "O=C(Nc1ccc(O)cn1)NC1CCN(c2ccccc2)CC1",
    "Endpoint Name": "pIC50",
    "Recorded Number": 6.74
  },
  {
    "Smiles Text": "O=C(Nc1ccc(O)cn1)NC1CCN(c2ccc(Cl)cc2)CC1",
    "Endpoint Name": "pIC50",
    "Recorded Number": 7.54
  },
  {
    "Smiles Text": "O=C(Nc1ccc(O)cn1)N1CCN(Cc2ccc(F)cc2)CC1",
    "Endpoint Name": "pIC50",
    "Recorded Number": 7.22
  },
  {
    "Smiles Text": "O=C(Nc1ccc(O)cn1)c1cccc(-c2ccccc2)c1",
    "Endpoint Name": "pIC50",
    "Recorded Number": 8.54
  },
  {
    "Smiles Text": "O=C(Nc1ccc(O)cn1)N1CCN(c2cc(F)cc(F)c2)CC1",
    "Endpoint Name": "pIC50",
    "Recorded Number": 7.92
  }
]

1. COc1ccc(N2CCN(C(=O)Nc3ccc(O)cn3)CC2)nc1
2. O=S(=O)(Nc1ccc(O)cn1)N1CCC(c2ccc(Cl)cc2)CC1
3. O=C(Nc1ccc(O)cn1)N1CCCN(c2ccc(Cl)cn2)CC1
4. O=C(Nc1ccc(O)cn1)N1CCN(c2ccc(F)c(F)c2)CC1
Exercise: Place the items in sequence of falling pIC50. # the answer lists labels in the order requested
Solution: 4, 2, 3, 1

A. O=S(=O)(Nc1ccc(O)cn1)C1CCN(c2ccc(C(F)(F)F)cc2)CC1
B. O=C(Nc1ccc(O)cc1)N1CCN(c2ccc(C(F)(F)F)cc2)CC1
C. O=C(Nc1ccc(O)cn1)OC1CCN(c2ccc(F)cc2)CC1
D. CC(C)C1CCN(C(=O)Nc2ccc(O)cn2)CC1
E. O=C(Nc1ccc(O)cn1)N1CCCN(c2ccc(C(F)(F)F)cn2)CC1
Exercise: Ascending by pIC50, please: list the molecules accordingly. # the answer lists labels in the order requested
Solution: B, E, A, D, C

a. O=C(Nc1ccc(O)cn1)N1CCC(c2ccc(F)cc2)CC1
b. O=C(Nc1ccc(O)cn1)OC1CCN(c2ccc(F)cc2F)CC1
Exercise: Endpoint returns whichever of a and b has the numerically higher pIC50. Reply with the label of the item you choose.
Solution: b
(b: 8.30, a: 7.60)

I. O=C(Nc1ccc(O)cn1)N1CCN(c2ccc(Cl)cn2)CC1
II. COc1ccc(C2CCN(C(=O)Nc3ccc(O)cn3)CC2)cc1
III. O=C(Nc1ccc(O)cc1)N1CCN(c2ccc(C(F)(F)F)cn2)CC1
Exercise: Place the items in sequence of falling pIC50. # the answer lists labels in the order requested
Solution: I, II, III

====

# Test System: UniProt:O15121
# Protocol Summary: Jurkat T cell measurement of conversion of dihydroceramide to ceramide (Des1 activity, LC-MS/MS of NBD-C6-ceramide)
# Assay type: cell-based
# Design: endogenous in cells; host or cells: Jurkat clone E6-1
# Experimental Setup: Jurkat clone E6-1 cells, 10 μM NBD-C6-dihydroceramide, 3 hours at 37° C.; read-out: Des1 IC50
Endpoint Name: IC50 (nM)

[
  {
    "Smiles Text": "O=C(Nc1ccc(O)cn1)OC1CCN(c2ccc(Cl)cc2Cl)CC1",
    "Recorded Number": 4
  }
]

1. O=C(Nc1ccc(O)cn1)OC1CCN(c2ccccc2)CC1
2. O=C(Nc1ccc(O)cn1)N1CCN(c2cccc(F)n2)CC1
Exercise: Endpoint returns whichever of 1 and 2 has the numerically higher IC50. Reply with the label of the item you choose.
Solution: 1
(1: 8 nM, 2: 3 nM)
